Tested on: L1210 leukemia ip in BDF1 mice, survival T/C
Test Name: NCI In Vivo Anticancer Drug Screen. Data for tumor model L1210 Leukemia (intraperitoneal) in B6D2F1 (BDF1) mice
Reported Conditions: endpoint: mean survival time; dose: 400.0 mg/kg/injection; schedule: Q04DX003 (ip); vehicle: saline with Tween-80; higher = longer survival
Toxic doses and inconclusive results are not listed.
The following molecules are listed with their measured T/C values.

Would you please look over these solved cases?
Molecule | Measured On | T/C
Cn1nnc2nnc(-c3ccccc3)n21 | L1210 leukemia ip in BDF1 mice, survival T/C | 98 % of control
O=C(OC1CC2CC=CC21)c1ccc([N+](=O)[O-])cc1 (configuration not stated) | L1210 leukemia ip in BDF1 mice, survival T/C | 94 % of control

Given the molecule "Nc1nc(C=O)c(Cc2ccc(Br)cc2)c(=O)[nH]1" , write its reported T/C.
102 % of control

Fill in reported T/C for this entry: "COC(=O)c1cc(C(C)=O)nc2ccccc12"
90 % of control

Answer with the recorded T/C for the molecule listed here: COC1(OC)C2C=CC1C1C2C2C1C1C=CC2C1(OC)OC (configuration not stated)
89 % of control

Name the recorded T/C of the molecule listed here: "CCOC(=O)CCCN(C(=O)c1ccccc1)c1scc(-c2ccccc2)c1C(=O)OCC"
103 % of control

Could you please provide reported T/C for "CCOC(=O)c1ccccc1N(O)C(=O)Nc1ccc(C)cc1" ? Thanks!
109 % of control

Please indicate T/C recorded for COc1ccc2c(c1)OC(C)(C)C(c1ccccc1)C2c1ccc(OCCN2CCCC2)cc1 (configuration not stated)
95 % of control

Note down T/C recorded for "CCOC(=O)c1nc(N)n[nH]1"
101 % of control

Supply measured T/C of O=C(O)C1C2CC3OC(=O)C1C3C2 (configuration not stated) in your reply.
104 % of control

Specify T/C for "Cc1ccc(C(=O)CCCCl)c(C)c1" and stop.
96 % of control

Identify measured T/C corresponding to OCCN1C(c2ccccc2)C1c1ccccc1 (configuration not stated)
97 % of control

* * *

Tested on: L1210 leukemia ip in BDF1 mice, survival T/C
Test Name: NCI In Vivo Anticancer Drug Screen. Data for tumor model L1210 Leukemia (intraperitoneal) in B6D2F1 (BDF1) mice
Reported Conditions: endpoint: mean survival time; dose: 6.25 mg/kg/injection; schedule: Q01DX009 (ip); vehicle: Klucel (hydroxypropylcellulose) (HPC); higher = longer survival
Toxic doses and inconclusive results are not listed.
Listed next: entries and their corresponding T/C.

Compound | Measured On | T/C
CCOP(=S)(OCC)S/C(C(=O)NC)=C(/C)O | L1210 leukemia ip in BDF1 mice, survival T/C | 94 % of control
O=C(CCCN1CC=C(n2c(=O)[nH]c3ccccc32)CC1)c1ccc(F)cc1 | L1210 leukemia ip in BDF1 mice, survival T/C | 100 % of control
Nc1ncc(C=O)c(N)n1 | L1210 leukemia ip in BDF1 mice, survival T/C | 113 % of control

Next compound, T/C to be filled in.
Provide T/C, tested on L1210 leukemia ip in BDF1 mice, survival T/C, for C=C1C(=O)OC2C3OC(C)(CCC(O)C3COC(C)=O)CC(OC(=O)/C(=C/C)COC(C)=O)C12 (centres undefined) .
100 % of control
